experimental target: THOC4 (ALYREF) (UniProt Q86V81 Q86V81:2-257)
protocol: SPR
Each item that follows carries a reported binding signal.
Give the value in normalized Rmax but do not write normalized Rmax after it.

input: GET /values?readout=binding signal&item= UGCUAUCUUAUCACCUUUAG (ssRNA, 2'-OMe all, full PS) [DKLS331584 (SEQ 26)]
output: 0.15

input: Next up: CCAGUGAGCCG (ssRNA, 2'-OMe all, full PS) [In3E3 3' truncation 11 nt]
output: -0.03

input: Next up: CCUCUCUGCCGCUCUUGCCU (ssRNA, 2'-OMe all, full PS) [DKLS420640 (SEQ 57)]
output: 0.03

input: Next up: CACGUACCUUAGUGCCUCAC (ssRNA, 2'-OMe all, ZEN at both ends) [Open_L ZEN (DKLS665920)]
output: -0.15

input: Next up: GCCGGACUUGCCU (ssRNA, 2'-OMe all, full PS) [In3E3 5' truncation 13 nt]
output: 0.01

input: Next up: AGAGGCAGCAGUACGACGG (ssRNA, 2'-OMe all, full PS) [LSA_ATG 5' truncation 19 nt]
output: 1.1

input: Next up: GCAGCAGUACGACGG (ssRNA, 2'-OMe all, full PS) [LSA_ATG 5' truncation 15 nt]
output: 0.31

src = patent US20200230168
